Experiment: Pharmacokinetic study in rats after oral administration of GLGZG (UPLC-MS/MS of plasma)
Assay type: in vivo, rat
Conditions: rat plasma, male SD rats, oral GLGZG 3.6 g·(kg·day)^−1, n = 6
measure: AUC(0–∞) (mg·L/min)
Just the number in mg·L/min, nothing appended.

compound smiles	measure	unit abbrev	experimental result
O=C(/C=C/c1ccc(O[C@@H]2O[C@H](CO)[C@@H](O)[C@H](O)[C@H]2O)cc1)c1ccc(O)cc1O	AUC(0–∞)	mg·L/min	27.17

Please turn your attention to the following entry.
Query: Return reported AUC(0–∞). Input compound: `CC1(C)[C@@H](O[C@H]2O[C@H](C(=O)O)[C@@H](O)[C@H](O)[C@H]2O[C@@H]2O[C@H](C(=O)O)[C@@H](O)[C@H](O)[C@H]2O)CC[C@]2(C)[C@H]3C(=O)C=C4[C@@H]5C[C@@](C)(C(=O)O)CC[C@]5(C)CC[C@@]4(C)[C@]3(C)CC[C@@H]12`
Result: 1262.61

----------
A collection of molecules and their measured Stability (24 h at room temperature) Mean
Assay: Stability of analytes in rat plasma samples (method validation)
Assay type: in vitro ADME
Settings: 25°C for 24 h, low QC nominal concentration, n = 6
// note: answer is a bare numeric in %

molecule	experimental result
C[C@@]12C[C@@]3(O)O[C@@H](O1)[C@]1(COC(=O)c4ccccc4)[C@H]3C[C@@]12O[C@@H]1O[C@H](CO)[C@@H](O)[C@H](O)[C@H]1O	105.66
CC1(C)[C@@H](O[C@H]2O[C@H](C(=O)O)[C@@H](O)[C@H](O)[C@H]2O[C@@H]2O[C@H](C(=O)O)[C@@H](O)[C@H](O)[C@H]2O)CC[C@]2(C)[C@H]3C(=O)C=C4[C@@H]5C[C@@](C)(C(=O)O)CC[C@]5(C)CC[C@@]4(C)[C@]3(C)CC[C@@H]12	96.05
CC12CC(O)C3CC1(OC1OC(CO)C(O)C(O)C1O)C3(COC(=O)c1ccccc1)C(=O)O2 (centres unmarked)	94.78
O=C(/C=C/c1ccc(O)cc1)c1ccc(O)cc1O	99.77

Okay, next one:
Query: Tell me Stability (24 h at room temperature) Mean reported for `O=C1C[C@@H](c2ccc(O[C@@H]3O[C@H](CO)[C@@H](O)[C@H](O)[C@H]3O)cc2)Oc2cc(O)ccc21`
Result: 95.70

----------
Listed compounds paired with reported MRT inf
Assay: Pharmacokinetic study in rats after oral administration of GLGZG (UPLC-MS/MS of plasma)
Type: in vivo, rat
Conditions: rat plasma, male SD rats, oral GLGZG 3.6 g·(kg·day)^−1, n = 6; read-out: MRT(0–∞) (converted)
Experimental: Chromatographic separation was performed on an Waters CORTECS C18 (2.1 × 100 mm, 1.6 μm) with the column temperature at 45°C. The mobile phase was composed of 0.1% formic acid in water (A) and acetonitrile (B) with a gradient program (0–0.5 min from 8% to 10% B; 0.5–2.5 min from 10% to 15% B; 2.5–4.0 min from 15% to 60% B; 4.0–5.0 min from 60% to 95% B; 5.0–6.5 min 95% B). The flow rate was 0.25 mL/min and the injection volume was 1 μL. […]
Just the number please, in h, no unit attached.

Query: Give a short answer stating reported MRT inf for CC1(C)[C@@H](O[C@H]2O[C@H](C(=O)O)[C@@H](O)[C@H](O)[C@H]2O[C@@H]2O[C@H](C(=O)O)[C@@H](O)[C@H](O)[C@H]2O)CC[C@]2(C)[C@H]3C(=O)C=C4[C@@H]5C[C@@](C)(C(=O)O)CC[C@]5(C)CC[C@@]4(C)[C@]3(C)CC[C@@H]12 [Glycyrrhizic acid, glycyrrhizic acid] .
Result: 4.4

Query: Complete the entry with MRT inf for O=C(/C=C/c1ccc(O[C@@H]2O[C@H](CO)[C@@H](O)[C@H](O)[C@H]2O)cc1)c1ccc(O)cc1O [Isoliquiritin, isoliquiritin]
Result: 5.66

Query: Supply reported MRT inf belonging to this compound: CC1(C)[C@@H](O)CC[C@]2(C)[C@H]3C(=O)C=C4[C@@H]5C[C@@](C)(C(=O)O)CC[C@]5(C)CC[C@@]4(C)[C@]3(C)CC[C@@H]12 [Glycyrrhetinic acid, glycyrrhetinic acid]
Result: 11.8

Query: Give the reported value of MRT inf for this record: O=C1C[C@@H](c2ccc(O[C@@H]3O[C@H](CO)[C@@H](O)[C@H](O)[C@H]3O)cc2)Oc2cc(O)ccc21 [Liquiritin, liquiritin]
Result: 5.93

Query: Give me measured MRT inf, please, for this compound: CC12CC(O)C3CC1(OC1OC(CO)C(O)C(O)C1O)C3(COC(=O)c1ccccc1)C(=O)O2 (centres unmarked) [Albiflorin, albiflorin]
Result: 3.59

Query: Return reported MRT inf. Input compound: C[C@@]12C[C@@]3(O)O[C@@H](O1)[C@]1(COC(=O)c4ccccc4)[C@H]3C[C@@]12O[C@@H]1O[C@H](CO)[C@@H](O)[C@H](O)[C@H]1O [Paeoniflorin, paeoniflorin]
Result: 3.93

Query: Fill in MRT inf for record O=C1C[C@@H](c2ccc(O)cc2)Oc2cc(O)ccc21 [Liquiritigenin, liquiritigenin]
Result: 4.92

Query: Using known records, supply MRT inf for O=C(/C=C/c1ccc(O)cc1)c1ccc(O)cc1O [Isoliquiritigenin, isoliquiritigenin]
Result: 4.76

----------
# Lookup of reported Autosampler stability (24 h) Mean keyed by entry
Test: Stability of analytes in rat plasma samples (method validation)
Assay type: in vitro ADME
Details: 4°C for 24 h, high QC nominal concentration, n = 6
Just so you know, I need the unit written after the number.

> print(dat)
                                   compound  experimental.result
1     O=C1C[C@@H](c2ccc(O)cc2)Oc2cc(O)ccc21               97.16%
2  CC12CC(O)C3CC1(OC1OC(CO)C(O)C(O)C1O)C3(COC(=O)c1ccccc1)C(=O)O2 (stereo not drawn)              107.72%
3  C[C@@]12C[C@@]3(O)O[C@@H](O1)[C@]1(COC(=O)c4ccccc4)[C@H]3C[C@@]12O[C@@H]1O[C@H](CO)[C@@H](O)[C@H](O)[C@H]1O              113.81%
4  O=C1C[C@@H](c2ccc(O[C@@H]3O[C@H](CO)[C@@H](O)[C@H](O)[C@H]3O)cc2)Oc2cc(O)ccc21               90.84%
5  O=C(/C=C/c1ccc(O[C@@H]2O[C@H](CO)[C@@H](O)[C@H](O)[C@H]2O)cc1)c1ccc(O)cc1O               95.62%

Proceed to the following item.
Query: Given the compound `O=C(/C=C/c1ccc(O)cc1)c1ccc(O)cc1O` , write its reported Autosampler stability (24 h) Mean.
Result: 108.30%

----------
# reported AUC(0–∞); entries follow
Assay: Pharmacokinetic study in rats after oral administration of GLGZG (UPLC-MS/MS of plasma)
Format: in vivo, rat
Conditions: rat plasma, male SD rats, oral GLGZG 3.6 g·(kg·day)^−1, n = 6
Number first, unit second.

Query: Please give measured AUC(0–∞) of the following entry: `CC1(C)[C@@H](O)CC[C@]2(C)[C@H]3C(=O)C=C4[C@@H]5C[C@@](C)(C(=O)O)CC[C@]5(C)CC[C@@]4(C)[C@]3(C)CC[C@@H]12`
Result: 2041.10 ± 706.58 mg·L/min

Query: Entry `O=C(/C=C/c1ccc(O)cc1)c1ccc(O)cc1O` needs its AUC(0–∞) filled in; supply it.
Result: 8.52 ± 0.98 mg·L/min

Query: Tell me measured AUC(0–∞) for `O=C1C[C@@H](c2ccc(O)cc2)Oc2cc(O)ccc21` please.
Result: 20.38 ± 4.30 mg·L/min

Query: Assign AUC(0–∞) to the following record: `C[C@@]12C[C@@]3(O)O[C@@H](O1)[C@]1(COC(=O)c4ccccc4)[C@H]3C[C@@]12O[C@@H]1O[C@H](CO)[C@@H](O)[C@H](O)[C@H]1O`
Result: 904.73 ± 317.76 mg·L/min

Query: Provide measured AUC(0–∞) value, entry: `O=C1C[C@@H](c2ccc(O[C@@H]3O[C@H](CO)[C@@H](O)[C@H](O)[C@H]3O)cc2)Oc2cc(O)ccc21`
Result: 54.87 ± 14.40 mg·L/min

Query: Look up and report measured AUC(0–∞) for this entry: CC12CC(O)C3CC1(OC1OC(CO)C(O)C(O)C1O)C3(COC(=O)c1ccccc1)C(=O)O2 (stereo not drawn)
Result: 1263.37 ± 306.91 mg·L/min

----------
Test: Stability of analytes in rat plasma samples (method validation)
Assay type: in vitro ADME
Settings: 4°C for 24 h, middle QC nominal concentration, n = 6
Autosampler stability (24 h) Mean: recorded values
Respond numerically; units are % and should not be typed.

Example cases with answers are listed next.
molecule	measure	unit abbrev	experimental result
O=C(/C=C/c1ccc(O)cc1)c1ccc(O)cc1O	Autosampler stability (24 h) Mean	%	91.71
CC12CC(O)C3CC1(OC1OC(CO)C(O)C(O)C1O)C3(COC(=O)c1ccccc1)C(=O)O2 (stereo not shown)	Autosampler stability (24 h) Mean	%	111.49
O=C1C[C@@H](c2ccc(O[C@@H]3O[C@H](CO)[C@@H](O)[C@H](O)[C@H]3O)cc2)Oc2cc(O)ccc21	Autosampler stability (24 h) Mean	%	92.30
C[C@@]12C[C@@]3(O)O[C@@H](O1)[C@]1(COC(=O)c4ccccc4)[C@H]3C[C@@]12O[C@@H]1O[C@H](CO)[C@@H](O)[C@H](O)[C@H]1O	Autosampler stability (24 h) Mean	%	98.29
O=C1C[C@@H](c2ccc(O)cc2)Oc2cc(O)ccc21	Autosampler stability (24 h) Mean	%	93.53
O=C(/C=C/c1ccc(O[C@@H]2O[C@H](CO)[C@@H](O)[C@H](O)[C@H]2O)cc1)c1ccc(O)cc1O	Autosampler stability (24 h) Mean	%	97.14

Query: Read off the recorded Autosampler stability (24 h) Mean for `CC1(C)[C@@H](O[C@H]2O[C@H](C(=O)O)[C@@H](O)[C@H](O)[C@H]2O[C@@H]2O[C@H](C(=O)O)[C@@H](O)[C@H](O)[C@H]2O)CC[C@]2(C)[C@H]3C(=O)C=C4[C@@H]5C[C@@](C)(C(=O)O)CC[C@]5(C)CC[C@@]4(C)[C@]3(C)CC[C@@H]12`
Result: 92.82
